- experiment-notes: Solubility at 37° C. by UHPLC/UV
- Type: physicochemical
- condition-label: 20 mM sodium acetate/acetic acid buffer, 37 °C, pH 4.5, aqueous buffer, thermodynamic from solid, 20 mM NaOAc/HOAc (pH 4.5), 1 h
- Method: Sofosbuvir form 6 prepared according to example 18 above and Sofosbuvir form 7 prepared according to example 16 above was used. The solubility was determined as follows: 100 mg test substance was weighed into a glass vial, followed by addition of 4 mL solvent (water, 0.01 M HCl, 20 mM sodium acetate/acetic acid [pH 4.5], 50 mM KH2PO4 [pH 6.8]). […] 100 μL of the clear filtrate were diluted with 900 μL acetonitrile/water mixture (1:1) and 1 μL thereof was analyzed by UHPLC/UV: […]
quantity-measured: solubility at 1 h (µg/mL)
Express it in µg/mL; write the number only.

The compound listed as CC(C)OC(=O)[C@H](C)NP(=O)(OC[C@H]1O[C@@H](n2ccc(=O)[nH]c2=O)[C@](C)(F)[C@@H]1O)Oc1ccccc1 (stereo partly shown) [Form 7] shows solubility at 1 h equal to 3100
